molecular target: TYK2 JH1 catalytic (human); test: radiometric filter-binding kinase assay, Kinase HotSpot; details: compound 0.5 µM; ATP 10 µM
measurement-type: residual activity

Tell me measured residual activity for COc1ccc(S(=O)(=O)N(CCO)c2ccccc2CN(C)C/C=C/c2ccc(Cl)cc2)cc1 please.
110%

Tell me measured residual activity for COc1ccc(C(=O)Nc2sc3c(c2C(N)=O)CCCC3)cc1OC please.
117%

Tell me measured residual activity for CC(C)(C)c1cc(C=C(C#N)C#N)cc(Br)c1O please.
61.3%

Tell me measured residual activity for N#Cc1c[nH]c2c[nH]/c(=N\Cc3cccnc3)cc2/c1=N\c1ccc(F)c(Cl)c1 please.
103%

Tell me measured residual activity for N#C/C(=C\c1ccc(O)c(O)c1)C(=O)NCc1ccccc1 please.
97.1%

----------
target: ERBB2 (human); assay: radiometric filter-binding kinase assay, Kinase HotSpot; conditions: compound 0.5 µM; ATP 10 µM
measurement-type: residual activity (%)
Your answer is read as %, so omit the unit and give the number.

# example entries with known answers
# structure, measurement-type, unit-spec, reported-measurement
measured = [
    ("COc1cc2ncnc(Nc3ccc(OCc4ccccc4)cc3)c2cc1OC", "residual activity", "%", 42.6),
    ("Cc1cncc2cccc(S(=O)(=O)N3CCCN(C(=O)CN)C[C@H]3C)c12", "residual activity", "%", 99.7),
    ("c1ccc2c(-c3ccncc3)c[nH]c2c1", "residual activity", "%", 95.6),
]

Quote ERBB2 (human) residual activity for entry O=C1Nc2ccc(Br)cc2/C1=C\c1cc2c([nH]1)CCCC2 .
115

Quote ERBB2 (human) residual activity for entry COc1ccc(Cl)cc1NC(=O)Nc1cc(C)nc2ccccc12 .
99.7

Quote ERBB2 (human) residual activity for entry COc1ccc2c(c1)c(C1=C(c3c[nH]c4ccccc34)C(=O)NC1=O)cn2CCCN(C)C .
115

Quote ERBB2 (human) residual activity for entry COc1cc(Nc2c(C#N)cnc3cc(OCCCN4CCN(C)CC4)c(OC)cc23)c(Cl)cc1Cl .
32.9

Quote ERBB2 (human) residual activity for entry COc1ccc(S(=O)(=O)N(CCO)c2ccccc2CN(C)C/C=C/c2ccc(Cl)cc2)cc1 .
97.8

Quote ERBB2 (human) residual activity for entry CCCCc1c(-c2ccc(OC)cc2)[nH]c2nccnc12 .
96.4

Quote ERBB2 (human) residual activity for entry CC(C)(C)c1cc(C=C(C#N)C#N)cc(Br)c1O .
95.7

Quote ERBB2 (human) residual activity for entry Cc1nc(-c2ccccc2)c(-c2ccncc2)o1 .
105

----------
target: ABL2 (human) (UniProt P42684); test: radiometric filter-binding kinase assay, Kinase HotSpot; details: compound 0.5 µM; ATP 10 µM
Sequence (P42684 whole entry, looked up): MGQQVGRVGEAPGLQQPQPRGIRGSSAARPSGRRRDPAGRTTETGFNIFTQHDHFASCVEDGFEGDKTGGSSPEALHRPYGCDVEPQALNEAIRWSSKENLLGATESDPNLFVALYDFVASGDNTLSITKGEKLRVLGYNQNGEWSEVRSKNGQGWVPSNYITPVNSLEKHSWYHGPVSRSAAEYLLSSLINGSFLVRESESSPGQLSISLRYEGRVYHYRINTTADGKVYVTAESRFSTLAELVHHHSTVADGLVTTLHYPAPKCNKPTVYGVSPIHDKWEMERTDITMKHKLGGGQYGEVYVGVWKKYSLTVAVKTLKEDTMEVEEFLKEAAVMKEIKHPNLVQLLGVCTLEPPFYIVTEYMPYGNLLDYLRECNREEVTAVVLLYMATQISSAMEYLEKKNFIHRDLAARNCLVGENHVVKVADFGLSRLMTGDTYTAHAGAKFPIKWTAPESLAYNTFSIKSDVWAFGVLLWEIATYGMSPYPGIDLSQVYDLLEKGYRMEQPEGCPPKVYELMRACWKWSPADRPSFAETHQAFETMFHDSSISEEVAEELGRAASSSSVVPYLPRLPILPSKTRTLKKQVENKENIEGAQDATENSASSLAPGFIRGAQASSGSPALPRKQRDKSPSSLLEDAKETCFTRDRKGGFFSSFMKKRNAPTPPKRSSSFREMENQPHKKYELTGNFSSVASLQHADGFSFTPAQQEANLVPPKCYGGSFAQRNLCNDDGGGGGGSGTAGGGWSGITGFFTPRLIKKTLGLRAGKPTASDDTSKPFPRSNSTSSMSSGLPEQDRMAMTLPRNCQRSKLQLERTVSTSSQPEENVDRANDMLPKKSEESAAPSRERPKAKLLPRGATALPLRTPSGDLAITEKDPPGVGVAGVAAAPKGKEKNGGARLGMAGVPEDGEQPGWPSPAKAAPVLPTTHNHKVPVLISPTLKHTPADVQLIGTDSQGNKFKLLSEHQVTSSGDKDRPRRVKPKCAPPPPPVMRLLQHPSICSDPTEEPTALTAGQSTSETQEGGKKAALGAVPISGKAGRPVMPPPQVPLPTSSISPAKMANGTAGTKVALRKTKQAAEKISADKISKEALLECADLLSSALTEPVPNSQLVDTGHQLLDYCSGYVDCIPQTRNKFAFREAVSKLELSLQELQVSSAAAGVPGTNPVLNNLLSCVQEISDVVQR
measurement-type: residual activity (%)
Your answer is read as %, so omit the unit and give the number.

# structure, assay-system, reported-measurement
data = [
    ("O=C1NC(=O)c2c1c1c3ccccc3[nH]c1n1cncc21", "ABL2 (human) (UniProt P42684)", 79.9),
    ("O=C1Nc2ccc(Br)cc2/C1=C\\c1cc2c([nH]1)CCCC2", "ABL2 (human) (UniProt P42684)", 82.6),
    ("CN(C)S(=O)(=O)c1ccc2c(c1)/C(=C/c1cc3c([nH]1)CCCC3)C(=O)N2", "ABL2 (human) (UniProt P42684)", 56.8),
    ("CCCCc1c(-c2ccc(OC)cc2)[nH]c2nccnc12", "ABL2 (human) (UniProt P42684)", 70.5),
    ("C[C@@H]1CCN(C(=O)CC#N)C[C@@H]1N(C)c1ncnc2[nH]ccc12", "ABL2 (human) (UniProt P42684)", 90.5),
    ("Cc1cccc(-c2nc(C(C)(C)C)[nH]c2-c2ccc3c(c2)OCO3)n1", "ABL2 (human) (UniProt P42684)", 95.7),
]

We now examine a further compound.
Quote ABL2 (human) (UniProt P42684) residual activity for entry COc1cc2ncnc(Nc3ccc(OCc4ccccc4)cc3)c2cc1OC .
101

Cited source for all entries: the kinase profiling compilation of Christmann-Franck et al. (2016)
